B1: SMG5 (parent)
chain: TRKLSPGKKRCKDIKRLLVNFMYL

variants of: B1; assay: protein stability index of a GFP-peptide fusion (GPS, HEK-293T) (PSI 1-6); higher = more stable; details: c terminus: a fixed tail appended;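 further: lentivirally expressed fusions sorted by FACS into six bins by GFP to DsRed ratio, PSI derived from sequencing read proportions per bin multiplied by bin number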
// false (0) strictly below 3 in protein stability index; true (1) otherwise

Some entries whose results are on file:
R16A = false (0)
L4H = false (0)
K8S = false (0)

Qu. State whether the measured protein stability index reaches 3, counting equality as reaching it, for L4G
Ans. false (0)

Qu. Does the variant R2S have recorded protein stability index that is 3 or more?
Ans. false (0)
